Tested on: Escherichia coli TOP10
Assay: shrunken log2 fold change of peptide-encoding DNA abundance (4.5 h post-induction vs induction); higher = less antimicrobial activity (less host growth inhibition)
Details: time post-induction: 4.5 h; library: site-saturation at positions 5, 18, 19, 20
Assign class by shrunken log2 fold change: not lower than -0.1 means condition met; lower than -0.1 means condition not met.

[[record]]
chain = "RRIRLRPPRLPRPRPRPHVMPRP"
assigned_category = "condition not met"


Query: State whether the measured shrunken log2 fold change reaches -0.1, counting equality as reaching it, for `RRIRARPPRLPRPRPRPLYIPRP`
Response: condition not met

Query: Could you verify whether the entry `RRIRDRPPRLPRPRPRPFKYPRP` shows shrunken log2 fold change of no less than -0.1?
Response: condition met

Query: # check: shrunken log2 fold change of `RRIRWRPPRLPRPRPRPVARPRP` is greater than or equal to -0.1
Response: condition met

Query: Assess whether reported shrunken log2 fold change for `RRIRCRPPRLPRPRPRPNGSPRP` sits at -0.1 or higher.
Response: condition not met

---

Tested on: Escherichia coli TOP10
Assay: shrunken log2 fold change of peptide-encoding DNA abundance (4.5 h post-induction vs induction); higher = less antimicrobial activity (less host growth inhibition)
Conditions: time post-induction: 4.5 h; library: site-saturation at positions 5, 18, 19, 20
Measured shrunken log2 fold change of individual entries
When you answer, write just the number.

[[record]]
chain = "RRIRHRPPRLPRPRPRPEMPPRP"
readout_label = "shrunken log2 fold change"
result = -0.177

[[record]]
chain = "RRIRVRPPRLPRPRPRPQAVPRP"
readout_label = "shrunken log2 fold change"
result = -0.0188

[[record]]
chain = "RRIRKRPPRLPRPRPRPQHGPRP"
readout_label = "shrunken log2 fold change"
result = 0.205

[[record]]
chain = "RRIRRRPPRLPRPRPRPVDRPRP"
readout_label = "shrunken log2 fold change"
result = 0.0916

[[record]]
chain = "RRIRCRPPRLPRPRPRPQCPPRP"
readout_label = "shrunken log2 fold change"
result = -0.399


Reported Escherichia coli TOP10 shrunken log2 fold change for item `RRIRNRPPRLPRPRPRPCKQPRP` was -0.0218

The recorded shrunken log2 fold change with Escherichia coli TOP10 for `RRIRVRPPRLPRPRPRPLAFPRP` was -0.221

Reported shrunken log2 fold change (Escherichia coli TOP10) for entry `RRIRMRPPRLPRPRPRPTANPRP` is 0.921

// sequence `RRIRQRPPRLPRPRPRPAQQPRP` , assay Escherichia coli TOP10, shrunken log2 fold change value: 0.00707

Sample `RRIRTRPPRLPRPRPRPLTKPRP` , system: Escherichia coli TOP10. Its shrunken log2 fold change is 0.0652

// returns shrunken log2 fold change for `RRIRCRPPRLPRPRPRPASQPRP` with Escherichia coli TOP10; value = -0.0515

Record for `RRIRMRPPRLPRPRPRPYICPRP` under target or system Escherichia coli TOP10: shrunken log2 fold change reported as -0.201

---

System: Escherichia coli TOP10
Assay: shrunken log2 fold change of peptide-encoding DNA abundance (4.5 h post-induction vs induction); higher = less antimicrobial activity (less host growth inhibition)
Conditions: time post-induction: 4.5 h; library: site-saturation at positions 5, 18, 19, 20
Threshold rule: shrunken log2 fold change greater than or equal to 0.1 is Satisfied; below that, Not satisfied.

[[record]]
chain = "RRIRTRPPRLPRPRPRPRPVPRP"
system_name = "Escherichia coli TOP10"
assigned_category = "Satisfied"

[[record]]
chain = "RRIRIRPPRLPRPRPRPFDNPRP"
system_name = "Escherichia coli TOP10"
assigned_category = "Not satisfied"

[[record]]
chain = "RRIRNRPPRLPRPRPRPVLSPRP"
system_name = "Escherichia coli TOP10"
assigned_category = "Not satisfied"


Query: Record `RRIRWRPPRLPRPRPRPRPIPRP` ; criterion: shrunken log2 fold change no lower than 0.1. Met?
Response: Satisfied

Query: Is shrunken log2 fold change for `RRIRVRPPRLPRPRPRPRETPRP` at or above 0.1?
Response: Satisfied

Query: shrunken log2 fold change >= 0.1 for `RRIRPRPPRLPRPRPRPLCKPRP` ?
Response: Not satisfied

---

System: Escherichia coli TOP10
Experiment: shrunken log2 fold change of peptide-encoding DNA abundance (4.5 h post-induction vs induction); higher = less antimicrobial activity (less host growth inhibition)
Conditions: time post-induction: 4.5 h; library: site-saturation at positions 5, 18, 19, 20
Readout label: shrunken log2 fold change
// return a plain number; no unit text

Worked cases, answers included:
[[record]]
chain = "RRIRLRPPRLPRPRPRPCTYPRP"
system_name = "Escherichia coli TOP10"
result = -0.683

[[record]]
chain = "RRIRWRPPRLPRPRPRPKASPRP"
system_name = "Escherichia coli TOP10"
result = -0.00939

[[record]]
chain = "RRIRTRPPRLPRPRPRPKVVPRP"
system_name = "Escherichia coli TOP10"
result = 2.37

[[record]]
chain = "RRIRHRPPRLPRPRPRPQAYPRP"
system_name = "Escherichia coli TOP10"
result = -0.451

[[record]]
chain = "RRIRQRPPRLPRPRPRPAWFPRP"
system_name = "Escherichia coli TOP10"
result = 0.162

[[record]]
chain = "RRIRCRPPRLPRPRPRPSMNPRP"
system_name = "Escherichia coli TOP10"
result = -0.757

[[record]]
chain = "RRIRFRPPRLPRPRPRPYKHPRP"
system_name = "Escherichia coli TOP10"
result = -0.911

[[record]]
chain = "RRIRHRPPRLPRPRPRPPAIPRP"
system_name = "Escherichia coli TOP10"
result = 0.0959


// sample `RRIRYRPPRLPRPRPRPTNYPRP` , its shrunken log2 fold change was 1.18

Sure, the documented shrunken log2 fold change for `RRIRLRPPRLPRPRPRPIQSPRP` is -0.0832

Recorded result, `RRIRWRPPRLPRPRPRPVGAPRP` , shrunken log2 fold change: 1.73

The sequence identified as `RRIRRRPPRLPRPRPRPDLPPRP` registered its shrunken log2 fold change at 0.0159

Value of shrunken log2 fold change reported for the sequence `RRIRSRPPRLPRPRPRPAATPRP` is 0.67

Per the records, this sequence ( `RRIRVRPPRLPRPRPRPCRYPRP` ) has shrunken log2 fold change equal to 0.0933

Summary for this sequence, `RRIRQRPPRLPRPRPRPWINPRP` : shrunken log2 fold change is -0.408

---

Test system: Escherichia coli TOP10;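 further: peptides expressed intracellularly from a pBAD plasmid library in pooled LB shake-flask culture, induced with 0.3% L-arabinose, DNA abundance read by NGS, three biological replicates, DESeq2 with apeglm shrinkage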
Experiment: shrunken log2 fold change of peptide-encoding DNA abundance (4.5 h post-induction vs induction); higher = less antimicrobial activity (less host growth inhibition)
Settings: time post-induction: 4.5 h; library: site-saturation at positions 5, 18, 19, 20
Readout label: shrunken log2 fold change
# print the numeric value only

[[record]]
chain = "RRIRKRPPRLPRPRPRPTIHPRP"
system_name = "Escherichia coli TOP10"
readout_label = "shrunken log2 fold change"
result = -0.087

[[record]]
chain = "RRIRYRPPRLPRPRPRPWGPPRP"
system_name = "Escherichia coli TOP10"
readout_label = "shrunken log2 fold change"
result = -0.206

[[record]]
chain = "RRIRGRPPRLPRPRPRPSVAPRP"
system_name = "Escherichia coli TOP10"
readout_label = "shrunken log2 fold change"
result = 1.37

[[record]]
chain = "RRIRNRPPRLPRPRPRPQPYPRP"
system_name = "Escherichia coli TOP10"
readout_label = "shrunken log2 fold change"
result = -0.0389

[[record]]
chain = "RRIRQRPPRLPRPRPRPDYWPRP"
system_name = "Escherichia coli TOP10"
readout_label = "shrunken log2 fold change"
result = 0.156

[[record]]
chain = "RRIRCRPPRLPRPRPRPSVRPRP"
system_name = "Escherichia coli TOP10"
readout_label = "shrunken log2 fold change"
result = -0.362

[[record]]
chain = "RRIRLRPPRLPRPRPRPPLHPRP"
system_name = "Escherichia coli TOP10"
readout_label = "shrunken log2 fold change"
result = 0.456

[[record]]
chain = "RRIRVRPPRLPRPRPRPSVQPRP"
system_name = "Escherichia coli TOP10"
readout_label = "shrunken log2 fold change"
result = -0.0929


Bench note, Escherichia coli TOP10: `RRIRVRPPRLPRPRPRPPHIPRP` , shrunken log2 fold change reads 0.0567

Escherichia coli TOP10 data for `RRIRCRPPRLPRPRPRPKTRPRP` ; its shrunken log2 fold change: 0.305

Record for `RRIRKRPPRLPRPRPRPAWFPRP` under target or system Escherichia coli TOP10: shrunken log2 fold change reported as 0.0729

Measured shrunken log2 fold change for this entry `RRIRMRPPRLPRPRPRPKRKPRP` on Escherichia coli TOP10: 2.32

Response field shrunken log2 fold change (Escherichia coli TOP10) for item `RRIRQRPPRLPRPRPRPYRFPRP` : 0.0797

shrunken log2 fold change on Escherichia coli TOP10 for `RRIRKRPPRLPRPRPRPHMDPRP` is 0.0185

Record `RRIRRRPPRLPRPRPRPSYGPRP` ; system Escherichia coli TOP10; shrunken log2 fold change = -0.83

Tested on Escherichia coli TOP10: `RRIRFRPPRLPRPRPRPIFLPRP` . Observed shrunken log2 fold change: -0.196

Tested on Escherichia coli TOP10, the item `RRIRIRPPRLPRPRPRPMEYPRP` showed shrunken log2 fold change equal to -0.395

The value of shrunken log2 fold change recorded for `RRIRQRPPRLPRPRPRPYTAPRP` when tested on Escherichia coli TOP10 reads -0.219

Hey, Escherichia coli TOP10 data for `RRIRFRPPRLPRPRPRPKPDPRP` : shrunken log2 fold change came out at 0.463

// sequence `RRIRARPPRLPRPRPRPMQLPRP` , assay Escherichia coli TOP10, shrunken log2 fold change value: 0.206

// assay Escherichia coli TOP10, entry `RRIRRRPPRLPRPRPRPWSPPRP` , shrunken log2 fold change value = 0.186

Test item `RRIRCRPPRLPRPRPRPFSTPRP` ; Escherichia coli TOP10; reported shrunken log2 fold change was -0.472
